# subject_of_test: Calpain-1 catalytic subunit (Homo sapiens, UniProt P07384)
# Sequence (P07384 whole entry): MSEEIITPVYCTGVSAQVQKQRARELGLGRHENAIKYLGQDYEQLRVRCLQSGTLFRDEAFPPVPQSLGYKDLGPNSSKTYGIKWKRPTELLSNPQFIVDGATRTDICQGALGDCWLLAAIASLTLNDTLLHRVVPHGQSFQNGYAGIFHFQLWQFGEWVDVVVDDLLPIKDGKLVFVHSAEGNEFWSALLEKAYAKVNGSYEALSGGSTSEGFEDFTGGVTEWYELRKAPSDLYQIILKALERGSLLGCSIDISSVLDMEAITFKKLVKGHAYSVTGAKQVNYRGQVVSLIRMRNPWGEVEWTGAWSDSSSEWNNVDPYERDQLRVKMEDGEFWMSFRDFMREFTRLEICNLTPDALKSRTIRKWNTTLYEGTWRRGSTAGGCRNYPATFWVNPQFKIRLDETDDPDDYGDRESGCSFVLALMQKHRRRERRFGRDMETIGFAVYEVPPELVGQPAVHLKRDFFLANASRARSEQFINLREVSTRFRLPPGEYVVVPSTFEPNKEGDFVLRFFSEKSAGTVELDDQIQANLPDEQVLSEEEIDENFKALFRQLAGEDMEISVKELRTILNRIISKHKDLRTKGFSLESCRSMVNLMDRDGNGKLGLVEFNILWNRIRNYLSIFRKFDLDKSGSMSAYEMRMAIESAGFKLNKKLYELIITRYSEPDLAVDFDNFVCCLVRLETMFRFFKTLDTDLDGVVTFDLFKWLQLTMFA
# assay_name: Inhibitory activity against recombinant human calpain I
pKi: −log10 of the molar value.
Outcome label depends on pKi relative to 7: at/above gives yes, below gives no.

{"smiles_text": "N#Cc1cccc(-c2ccc(S(=O)(=O)NCCNC(=O)C(=O)[C@H](Cc3ccccc3)NC(=O)c3c(Cl)cccc3Cl)s2)c1", "class": "yes"}
{"smiles_text": "CC(=O)NCc1cccc(-c2ccc(S(=O)(=O)NCCNC(=O)C(=O)[C@H](Cc3ccccc3)NC(=O)c3c(Cl)cccc3Cl)s2)c1", "class": "yes"}
{"smiles_text": "O=Cc1cccc(-c2ccc(S(=O)(=O)NCCNC(=O)C(=O)[C@H](Cc3ccccc3)NC(=O)c3c(Cl)cccc3Cl)s2)c1", "class": "yes"}
{"smiles_text": "O=C(NCCNS(=O)(=O)c1ccc(-c2ccccn2)s1)C(=O)[C@H](Cc1ccccc1)NC(=O)c1ccccc1", "class": "no"}
{"smiles_text": "O=C(NCCNS(=O)(=O)c1ccc(-c2ccccn2)s1)C(=O)[C@H](Cc1ccccc1)NC(=O)c1c(Cl)cccc1Cl", "class": "yes"}
{"smiles_text": "CS(=O)(=O)N[C@H](COCc1ccccc1)C(=O)N[C@@H](Cc1ccccc1)C(=O)C(=O)NCCNS(=O)(=O)c1ccc(-c2ccccn2)s1", "class": "yes"}
{"smiles_text": "COc1ccc(Cl)c(C(=O)N[C@@H](Cc2ccccc2)C(=O)C(=O)NCCNS(=O)(=O)c2ccc(-c3ccccn3)s2)c1", "class": "yes"}
{"smiles_text": "O=C(NCCNS(=O)(=O)c1ccc(-c2ccccn2)s1)C(=O)[C@H](Cc1ccccc1)NC(=O)c1cc(C(F)(F)F)cc(C(F)(F)F)c1", "class": "no"}
{"smiles_text": "O=C(NCCNS(=O)(=O)c1ccc(-c2ccccn2)s1)C(=O)[C@H](Cc1ccccc1)NC(=O)c1c(F)cccc1F", "class": "yes"}
{"smiles_text": "O=C(NCCNS(=O)(=O)c1ccc(-c2ccccn2)s1)C(=O)[C@H](Cc1ccccc1)NC(=O)c1ccc2c(c1)OCO2", "class": "no"}
{"smiles_text": "O=C(NCCNS(=O)(=O)c1ccc(-c2ccccn2)s1)C(=O)[C@H](Cc1ccccc1)NC(=O)c1cc(Cl)ccc1Cl", "class": "yes"}
{"smiles_text": "O=C(NCCNS(=O)(=O)c1ccc(CN2CCN(c3ccccn3)CC2)cc1)C(=O)[C@H](Cc1ccccc1)NC(=O)c1c(Cl)cccc1Cl", "class": "yes"}
